Consider the following binders; for each one, report its IC50.
MEASURED TARGET: NGF (nerve growth factor) (Homo sapiens, UniProt P01138 P01138:122-241)
Sequence (P01138 122-241, one chain of several): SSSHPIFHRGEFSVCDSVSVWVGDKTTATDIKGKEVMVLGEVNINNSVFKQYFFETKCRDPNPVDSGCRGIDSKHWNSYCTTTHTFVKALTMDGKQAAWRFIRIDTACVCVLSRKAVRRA
ASSAY PROTOCOL: cell_activity; neurite; TF-1 0.085
STATED CONDITIONS: tags: R&D Systems; chain copies: 2

Task item: I am curious: what IC50 value has been reported for GGGUCCUGGAUAAGAGTUUCCGUCUCGUAUCCUGUUACCC (ssRNA, as 82(1) except dT17) [SEQ ID NO: 156] ?
Reply: < 0.1 nM

Task item: I am curious: what IC50 value has been reported for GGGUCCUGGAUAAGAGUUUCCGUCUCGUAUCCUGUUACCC (ssRNA, as 82(1) except 2'-OMe U4,C6,U11,C21,U23,U28,U30,C32,U35,C38-40) [SEQ ID NO: 82(21)] ?
Reply: < 0.1 nM
